Recorded melting point by entry

Recorded melting point, per entry:
O=C(O)Cc1cc(Cl)ccc1Cl | 101 to 103 °C
Brc1ccc2ncnc(N3CCNCC3)c2c1 | 99 to 101 °C
CCOC(=O)c1cnc2c(OC)cc(OC)cc2c1Cl | 148 to 150 °C
CNC(=O)c1ccc(N)cc1 | 177 to 179 °C
Cc1cccnc1C(=O)NN | 76 to 78 °C
c1nc(N2CCNCC2)c2sccc2n1 | 98 to 100 °C
Nc1ccccc1CC(=O)O | 119 to 121 °C
COc1ccc(C)cc1NC(=O)c1cc2ccccc2cc1O | 178 to 180 °C
O=C(CN1CCNCC1)NC1CC1 | 22 to 24 °C
O=C(O)CCCCCNC(=O)NC1CCCCC1 | 138 to 140 °C

Incoming: Answer with reported melting point of CCC(=O)Nc1ccc(O)cc1
Outgoing: 169 to 171 °C

Incoming: Answer with reported melting point of CC(=O)NCCCc1ccc(C(=O)CCl)cc1
Outgoing: 96 to 98 °C

Incoming: Answer with reported melting point of CC(Cc1nc2ccccc2s1)(C(=O)O)c1ccccc1 (configuration not stated)
Outgoing: 193 to 195 °C

Incoming: Answer with reported melting point of N#C/C=C/c1ccc(Cl)cc1
Outgoing: 45 to 47 °C

Incoming: Answer with reported melting point of Nc1nc(Cc2ccc(Br)cc2)cs1
Outgoing: 146 to 148 °C

Incoming: Answer with reported melting point of N#CCN(CC#N)C(=O)CCCl
Outgoing: 62 to 64 °C

Incoming: Answer with reported melting point of CC(=O)c1c[nH]c(C(=O)N2CCCC(CO)C2)c1 (configuration not stated)
Outgoing: 146 to 148 °C

Incoming: Answer with reported melting point of Cn1c(=O)c(Br)c(N)n(Cc2ccccc2)c1=O
Outgoing: 210 to 212 °C

Incoming: Answer with reported melting point of Cn1cc(Nc2cccc(C(=O)O)c2)cn1
Outgoing: 218 to 220 °C
